Each recorded value in this set is attributed to PubChem BioAssay (Tox21).

biological target: Cytochrome P450 3A4 (Homo sapiens) (UniProt P08684); assay: Cytochrome P450 Family 3 Subfamily A Member 4 (CYP3A4) small molecule antagonists: luciferase reporter qHTS assay (AID 1671201); conditions: P450-Glo CYP3A4 enzyme, luciferin luminescence, 1 h; series mostly up to 115 µM; also: nearly all actives have a fitted effect of over 50% in size
Sequence (P08684 whole entry, looked up): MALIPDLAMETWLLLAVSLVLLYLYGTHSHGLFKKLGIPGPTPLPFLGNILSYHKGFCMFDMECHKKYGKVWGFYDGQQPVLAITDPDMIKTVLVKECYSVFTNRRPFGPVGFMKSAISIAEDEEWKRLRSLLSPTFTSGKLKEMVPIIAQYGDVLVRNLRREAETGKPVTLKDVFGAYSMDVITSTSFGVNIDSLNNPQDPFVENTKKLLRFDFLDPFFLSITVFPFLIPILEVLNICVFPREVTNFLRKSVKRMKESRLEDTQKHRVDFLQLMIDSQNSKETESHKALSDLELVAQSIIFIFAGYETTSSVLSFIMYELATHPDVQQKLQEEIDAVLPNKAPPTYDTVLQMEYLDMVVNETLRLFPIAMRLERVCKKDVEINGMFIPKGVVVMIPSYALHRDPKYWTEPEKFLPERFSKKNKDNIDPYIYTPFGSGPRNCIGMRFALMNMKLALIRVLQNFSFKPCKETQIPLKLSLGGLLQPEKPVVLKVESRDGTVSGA
Records with an inconclusive call do not appear. Activity calls are given as the source filed them. Calls follow the shape of the dose curve; as a rule, active = well fitted inhibition curve with a large enough effect in the repeat runs; inconclusive = weak or mixed curves; inactive = no such curve, though single readings can be large or run the other way.
One label from this list, please: active, inactive

Example cases with answers are listed next.
COc1ccc(OC)c(C=O)c1 : inactive
CN(C)C1CSSSC1 : inactive
Cc1c(Cl)c(=O)oc2cc(OP(=O)(OCCCl)OCCCl)ccc12 : inactive
CC(C)(C)C(O)/C(=C\c1ccc(Cl)cc1Cl)n1cncn1 (configuration not stated) : active
Nc1ccccc1C(=O)Oc1ccc2ccccc2c1 : inactive

[Q] What did the test return for CCCCCCCCCCCCCCC(Br)C(=O)O (configuration not stated) ?
[A] inactive

[Q] What did the test return for CCC(C)c1cc([N+](=O)[O-])cc([N+](=O)[O-])c1OC(=O)C=C(C)C (configuration not stated) ?
[A] inactive
